System: Aspergillus niger
Assay: Antifungal activity against Aspergillus niger assessed as reduction in fungal cell growth incubated for 72 hrs by broth microdilution method
Type: functional
The following compounds are listed with their measured MIC values.

Worked cases, answers included:
compound="OC(Cn1cncn1)(Cn1nnnc1CCN1CCN(c2cccc(C(F)(F)F)c2)CC1)c1ccc(F)cc1F (centres undefined)" value_reported="0.5 to 16 µg/mL"
compound=C[C@H](n1nnnc1CCN1CCN(C(c2ccccc2)c2ccccc2)CC1)[C@](O)(Cn1cncn1)c1ccc(F)cc1F value_reported="0.12 to 16 µg/mL"
compound=C[C@H](n1nnc(CCN2CCN(Cc3ccccc3)CC2)n1)[C@](O)(Cn1cncn1)c1ccc(F)cc1F value_reported="0.25 to 16 µg/mL"
compound="CCCCOc1ccccc1N1CCN(CCc2nnnn2CC(O)(Cn2cncn2)c2ccc(F)cc2F)CC1 (centres undefined)" value_reported="0.5 to 16 µg/mL"
compound=C[C@H](n1nnc(CCN2CCN(c3ccccc3Cl)CC2)n1)[C@](O)(Cn1cncn1)c1ccc(F)cc1F value_reported="0.25 to 16 µg/mL"

Prompt line: Bench note: what MIC did COc1ccc(N2CCN(CCc3nnn([C@@H](C)[C@](O)(Cn4cncn4)c4ccc(F)cc4F)n3)CC2)cc1 show?
Response line: 0.25 to 16 µg/mL

Prompt line: Same question for CC(n1nnc(CCN2CCN(c3ccccc3Cl)CC2)n1)C(O)(Cn1cncn1)c1ccc(F)cc1F (centres undefined) please.
Response line: 1 to 16 µg/mL

Prompt line: Same question for CC(n1nnc(CCN2CCN(c3ccccc3)CC2)n1)C(O)(Cn1cncn1)c1ccc(F)cc1F (centres undefined) please.
Response line: 1 to 16 µg/mL

###

Test system: Candida tropicalis
Assay: Antifungal activity against Candida tropicalis assessed as reduction in fungal cell growth incubated for 48 hrs by broth microdilution method
Type: functional
The following compounds are listed with their measured MIC values.

Worked cases, answers included:
compound=C[C@H](n1nnnc1CCN1CCN(c2ccc(F)cc2)CC1)[C@](O)(Cn1cncn1)c1ccc(F)cc1F value_reported="0.12 to 16 µg/mL"
compound="CC(n1nnnc1CCN1CCN(c2ccccc2Cl)CC1)C(O)(Cn1cncn1)c1ccc(F)cc1F (stereo not drawn)" value_reported="0.5 to 16 µg/mL"

Prompt line: Bench note: what MIC did OC(Cn1cncn1)(Cn1nnc(CCN2CCN(c3ccc(Cl)cc3)CC2)n1)c1ccc(F)cc1F (stereo not drawn) show?
Response line: 1 to 16 µg/mL

###

System: Candida tropicalis
Assay: Potency index, ratio for MIC of fluconazole to MIC of compound for Antifungal activity against Candida tropicalis NCIM 3110 assessed as reduction in fungal cell growth incubated for 24 hrs by broth microdilution method
Assay type: functional
measurement-label: Ratio

Prompt line: Bench note: what Ratio did Cc1cc2oc(-c3ccc(F)cc3)c(OCc3nnn[nH]3)c(=O)c2cc1Cl show?
Response line: 16 - 64

###

The following molecules are listed with their measured MIC values.
Tested on: Candida parapsilosis
Assay: Antifungal activity against Candida parapsilosis ATCC 22019 assessed as reduction in fungal cell growth incubated for 48 hrs by broth microdilution method
Type: functional
Conditions: Lodderomyces parapsilosis, ATCC 22019, 48 h

molecule=C[C@H](n1nnnc1CCN1CCN(c2cccc(Cl)c2)CC1)[C@](O)(Cn1cncn1)c1ccc(F)cc1F measurement_label=MIC value_reported="0.12 to 16 µg/mL"
molecule="CCCCOc1ccccc1N1CCN(CCc2nnnn2CC(O)(Cn2cncn2)c2ccc(F)cc2F)CC1 (stereo not drawn)" measurement_label=MIC value_reported="0.5 to 16 µg/mL"
molecule="COc1ccc(N2CCN(CCc3nnnn3CC(O)(Cn3cncn3)c3ccc(F)cc3F)CC2)cc1 (stereo not drawn)" measurement_label=MIC value_reported="0.5 to 16 µg/mL"
molecule=CCCCOc1ccccc1N1CCN(CCc2nnnn2[C@@H](C)[C@](O)(Cn2cncn2)c2ccc(F)cc2F)CC1 measurement_label=MIC value_reported="0.12 to 16 µg/mL"

Prompt line: Bench note: what MIC did C[C@H](n1nnc(CCN2CCN(c3ccccc3Cl)CC2)n1)[C@](O)(Cn1cncn1)c1ccc(F)cc1F show?
Response line: 0.25 to 16 µg/mL

Prompt line: Same question for CC(n1nnnc1CCN1CCN(c2ccccn2)CC1)C(O)(Cn1cncn1)c1ccc(F)cc1F (stereo not drawn) please.
Response line: 0.5 to 16 µg/mL

Prompt line: Same question for OC(Cn1cncn1)(Cn1nnnc1CCN1CCN(c2cccc(C(F)(F)F)c2)CC1)c1ccc(F)cc1F (stereo not drawn) please.
Response line: 0.5 to 16 µg/mL

Prompt line: Same question for COc1ccc(N2CCN(CCc3nnn(CC(O)(Cn4cncn4)c4ccc(F)cc4F)n3)CC2)cc1 (stereo not drawn) please.
Response line: 1 to 16 µg/mL

Prompt line: Same question for COc1ccccc1N1CCN(CCc2nnn(CC(O)(Cn3cncn3)c3ccc(F)cc3F)n2)CC1 (stereo not drawn) please.
Response line: 1 to 16 µg/mL

Prompt line: Same question for COc1ccc(N2CCN(CCc3nnn(C(C)C(O)(Cn4cncn4)c4ccc(F)cc4F)n3)CC2)cc1 (stereo not drawn) please.
Response line: 1 to 16 µg/mL

Prompt line: Same question for OC(Cn1cncn1)(Cn1nnc(CCN2CCN(c3ccc(Cl)cc3)CC2)n1)c1ccc(F)cc1F (stereo not drawn) please.
Response line: 1 to 16 µg/mL

Prompt line: Same question for C[C@@H](c1ncncc1F)[C@](O)(Cn1cncn1)c1ccc(F)cc1F [VORICONAZOLE] please.
Response line: 0.015 to 0.5 µg/mL

Prompt line: Same question for COc1ccccc1N1CCN(CCc2nnn(C(C)C(O)(Cn3cncn3)c3ccc(F)cc3F)n2)CC1 (stereo not drawn) please.
Response line: 1 to 16 µg/mL

Prompt line: Same question for OC(Cn1cncn1)(Cn1nnc(CCN2CCN(c3ccccn3)CC2)n1)c1ccc(F)cc1F (stereo not drawn) please.
Response line: 1 to 16 µg/mL

Prompt line: Same question for CC[C@@H]([C@H](C)O)n1ncn(-c2ccc(N3CCN(c4ccc(OC[C@@H]5CO[C@@](Cn6cncn6)(c6ccc(F)cc6F)C5)cc4)CC3)cc2)c1=O [POSACONAZOLE] please.
Response line: 0.12 to 1 µg/mL

Prompt line: Same question for C[C@H](n1nnc(CCN2CCN(c3cccc(C(F)(F)F)c3)CC2)n1)[C@](O)(Cn1cncn1)c1ccc(F)cc1F please.
Response line: 0.25 to 16 µg/mL

Prompt line: Same question for C[C@H](n1nnnc1CCN1CCN(c2c(Cl)cccc2Cl)CC1)[C@](O)(Cn1cncn1)c1ccc(F)cc1F please.
Response line: 0.12 to 16 µg/mL

Prompt line: Same question for C[C@H](n1nnnc1CCN1CCN(c2ccccn2)CC1)[C@](O)(Cn1cncn1)c1ccc(F)cc1F please.
Response line: 0.12 to 16 µg/mL

Prompt line: Same question for COc1ccc(N2CCN(CCc3nnnn3[C@@H](C)[C@](O)(Cn3cncn3)c3ccc(F)cc3F)CC2)cc1 please.
Response line: 0.12 to 16 µg/mL

Prompt line: Same question for C[C@H](n1nnc(CCN2CCN(C(c3ccccc3)c3ccccc3)CC2)n1)[C@](O)(Cn1cncn1)c1ccc(F)cc1F please.
Response line: 0.25 to 16 µg/mL

Prompt line: Same question for OC(Cn1cncn1)(Cn1nnnc1CCN1CCN(c2ccccc2Cl)CC1)c1ccc(F)cc1F (stereo not drawn) please.
Response line: 0.5 to 16 µg/mL

Prompt line: Same question for CCCCOc1ccccc1N1CCN(CCc2nnn([C@@H](C)[C@](O)(Cn3cncn3)c3ccc(F)cc3F)n2)CC1 please.
Response line: 0.25 to 16 µg/mL
